Test system: T1, human alpha2-Antiplasmin (human, UniProt P08697 40-491)
T1 sequence: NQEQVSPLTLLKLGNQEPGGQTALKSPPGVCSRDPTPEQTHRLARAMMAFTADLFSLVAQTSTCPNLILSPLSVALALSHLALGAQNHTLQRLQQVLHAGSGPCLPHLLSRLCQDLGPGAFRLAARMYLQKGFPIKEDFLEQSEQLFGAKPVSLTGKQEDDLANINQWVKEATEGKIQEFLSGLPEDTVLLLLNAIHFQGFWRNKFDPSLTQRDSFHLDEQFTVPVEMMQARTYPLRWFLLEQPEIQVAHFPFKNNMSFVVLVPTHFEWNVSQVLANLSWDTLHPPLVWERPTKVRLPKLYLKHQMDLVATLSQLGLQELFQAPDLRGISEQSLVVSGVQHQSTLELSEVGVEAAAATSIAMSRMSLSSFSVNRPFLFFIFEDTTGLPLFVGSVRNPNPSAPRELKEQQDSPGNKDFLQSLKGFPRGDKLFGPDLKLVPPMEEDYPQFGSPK
Assay info: cell-based or functional assay
// reported function blocking activity [IC50 M], 3rd exp. for each item listed
Answer format: numeric, nM implied, no suffix.

>  <Binder>
TPP-14313 hIgG1 (antibody, V domains shown, Human IgG1 lambda) VH: EVQLLESGGGLVQPGGSLRLSCAASGFTFDDYAMSWVRQAPGKGLEWVSAIGTGGGTYYADSVKGRFTISRDNSKNTLYLQMNSLRAEDTAVYYCAREYYDSSGYYHLVYWGQGTLVTVSS VL: QSVLTQPPSASGTPGQRVTISCTGSSSNIGATYDVHWYQQLPGTAPKLLIYSNNQRPSGVPDRFSGSKSGTSASLAISGLRSEDEADYYCAAWDWSLSGWVFGGGTKLTVL

>  <Unit label>
nM

>  <Experimental result>
13

$$$$

Attention now shifts to the item below.
Query: Return the recorded function blocking activity [IC50 M], 3rd exp. value; entry: TPP-14318 hIgG1 (antibody, V domains shown) VH: EVQLLESGGGLVQPGGSLRLSCAASGFTFDDYAMSWVRQAPGKGLEWVSAIGTGGGTYYADSVKGRFTISRDNSKNTLYLQMNSLRAEDTAVYYCAREYYDSSGYYHLEYWGQGTLVTVSS VL: QSVLTQPPSASGTPGQRVTISCTGSSSNIGATYDVHWYQQLPGTAPKLLIYSNNQRPSGVPDRFSGSKSGTSASLAISGLRSEDEADYYCAAWDWSLSGWVFGGGTKLTVLG
Result: 22

The measurements presented in this section are drawn from patent US20240010750A1.
